- Assay: Metabolic stability in human liver microsomes assessed as parent compound remaining at 0.2 uM preincubated for 5 mins followed by NADPH addition measured up to 60 mins by UPLC-MS/MS analysis
- Format: ADME, microsome
- Measurement setup: read-out: Stability
remaining at 1 h, 0.2 µM values, listed per item
Write down the numeric answer in % and omit the unit.

[[record]]
molecule_smiles = "COC(=O)N[C@H](C(=O)N1CCC[C@H]1C(=O)Nc1ccc([C@@H]2CC[C@@H](c3ccc(NC(=O)[C@@H]4CCCN4C(=O)[C@@H](NC(=O)OC)C(C)C)cc3)N2c2ccc([Si](C)(C)C)cc2)cc1)C(C)C"
test_result = 99.2

[[record]]
molecule_smiles = "COC(=O)N[C@H](C(=O)N1CCC[C@H]1C(=O)Nc1ccc([C@@H]2CC[C@@H](c3ccc(NC(=O)[C@@H]4CCCN4C(=O)[C@@H](NC(=O)OC)C(C)C)cc3)N2c2ccc(C(C)(C)C)cc2)cc1)C(C)C"
test_result = 96.2

[[record]]
molecule_smiles = "CC[Si](CC)(CC)c1ccc(N2[C@H](c3ccc(NC(=O)[C@@H]4CCCN4C(=O)[C@@H](NC(=O)OC)C(C)C)cc3)CC[C@H]2c2ccc(NC(=O)[C@@H]3CCCN3C(=O)[C@@H](NC(=O)OC)C(C)C)cc2)cc1"
test_result = 85.6


Continue with the next compound.
Query: Can you look up the measured remaining at 1 h, 0.2 µM of COC(=O)N[C@H](C(=O)N1CCC[C@H]1C(=O)Nc1ccc([C@@H]2CC[C@@H](c3ccc(NC(=O)[C@@H]4CCCN4C(=O)[C@@H](NC(=O)OC)C(C)C)cc3)N2c2ccc([Si](C)(C)C(C)(C)C)cc2)cc1)C(C)C for me?
Result: 84.3

###

- Assay: Protein binding in dog plasma at 10 uM after 6 hrs by UPLC-MS/MS based equilibrium dialysis method
- Assay type: ADME, cell-free, Canis lupus familiaris
- Measurement setup: read-out: PPB (converted)
Metric name: fraction unbound at 6 h, 10 µM
The reply should be a number, written without any unit.

[[record]]
molecule = "COC(=O)N[C@H](C(=O)N1CCC[C@H]1C(=O)Nc1ccc([C@@H]2CC[C@@H](c3ccc(NC(=O)[C@@H]4CCCN4C(=O)[C@@H](NC(=O)OC)C(C)C)cc3)N2c2ccc(C(C)(C)C)cc2)cc1)C(C)C [OMBITASVIR]"
metric_name = "fraction unbound at 6 h, 10 µM"
test_result = "1e-05"


Query: Can you look up the measured fraction unbound at 6 h, 10 µM of CC[Si](CC)(CC)c1ccc(N2[C@H](c3ccc(NC(=O)[C@@H]4CCCN4C(=O)[C@@H](NC(=O)OC)C(C)C)cc3)CC[C@H]2c2ccc(NC(=O)[C@@H]3CCCN3C(=O)[C@@H](NC(=O)OC)C(C)C)cc2)cc1 for me?
Result: 6e-05

###

- Assay: Ratio of drug uptake in Sprague-Dawley rat liver to plasma at 10 mg/kg, ig administered as single dose measured after 8 hrs by UPLC-MS/MS analysis
- Type: ADME, organism-based
- Measurement setup: po
Kp at 8 h values, listed per item
The reply should be a number, written without any unit.

[[record]]
molecule = "CC[Si](CC)(CC)c1ccc(N2[C@H](c3ccc(NC(=O)[C@@H]4CCCN4C(=O)[C@@H](NC(=O)OC)C(C)C)cc3)CC[C@H]2c2ccc(NC(=O)[C@@H]3CCCN3C(=O)[C@@H](NC(=O)OC)C(C)C)cc2)cc1"
metric_name = "Kp at 8 h"
test_result = 52.9


Continue with the next molecule.
Query: Can you look up the measured Kp at 8 h of COC(=O)N[C@H](C(=O)N1CCC[C@H]1C(=O)Nc1ccc([C@@H]2CC[C@@H](c3ccc(NC(=O)[C@@H]4CCCN4C(=O)[C@@H](NC(=O)OC)C(C)C)cc3)N2c2ccc(C(C)(C)C)cc2)cc1)C(C)C [OMBITASVIR] for me?
Result: 33.5

Taken from ChEMBL document CHEMBL4196017.
